Data provenance: paper doi:10.1101/783266

target: LRX1^ΔE-FLAG (Arabidopsis thaliana) (UniProt O65375); assay: BLI
metric: Kd (nM)
Note: unit nM is implicit; provide only the numeric part.

Ask | Consider the binder ATTKYISYQSLKRNSVPCSRRGASYYNCQNGAQANPYSRGCSKIARCRS [RALF1, in vitro synthesized peptide] and give its measured Kd.
Reply | 5
